Each entry below carries its reported Papp.
ASSAY_PROCEDURE: in vitro
CONDITION_SUMMARY: PAMPA, PAMPA-BBB Pe(10^-6 cm/sec), Table S3: compounds exhibiting low PAMPA-BBB permeability

| COMPOUND | Papp |
| --- | --- |
| O=C(OC[C@H]1O[C@@H](OC(=O)c2cc(O)c(O)c(O)c2)[C@H](OC(=O)c2cc(O)c(O)c(O)c2)[C@@H](OC(=O)c2cc(O)c(O)c(O)c2)[C@@H]1O)c1cc(O)c(O)c(O)c1 [1,2,3,6-TETRA-O-GALLOYL-.BETA.-D-GLUCOSE] | < 1 ×10⁻⁶ cm/s |
| CC(=O)O[C@@]12C[C@@H](C)[C@@]3(O)[C@@H](C=C(CO)C[C@]4(O)C(=O)C(C)=C[C@@H]34)[C@@H]1C2(C)C [PROSTRATIN] | < 1 ×10⁻⁶ cm/s |
| CN(Cc1nc2c(N)nc(N)nc2nc1O)c1ccc(C(=O)N[C@@H](CCC(=O)O)C(=O)O)cc1 [7-HYDROXYMETHOTREXATE] | < 1 ×10⁻⁶ cm/s |
| CN1C(=O)CC[C@H]1c1cccnc1 [COTININE] | < 1 ×10⁻⁶ cm/s |
| Nc1nc(Cl)nc2c1ncn2[C@@H]1O[C@H](CO)C(O)[C@H]1O (stereo partly drawn) [2-CHLOROADENOSINE] | < 1 ×10⁻⁶ cm/s |
| O=c1cc(-c2ccc(O)cc2)oc2cc(O[C@@H]3O[C@H](CO)[C@@H](O)[C@H](O)[C@H]3O[C@@H]3OC[C@](O)(CO)[C@H]3O)cc(O)c12 [APIIN] | 2 ×10⁻⁶ cm/s |

---

Each entry below carries its reported Papp.
ASSAY_PROCEDURE: in vitro
CONDITION_SUMMARY: PAMPA, PAMPA-BBB Pe, Table S1; 60 min, room temperature, 0.05 mM

| MOLECULE | READING_UNIT | Papp |
| --- | --- | --- |
| COC1=C[C@@]23CCN(C)[C@H](Cc4ccc(OC)c(O)c42)C3=CC1=O [(-)-Sinoacutine] | ×10⁻⁶ cm/s | 11.5 |
| COC(=O)[C@H]1[C@H]2C[C@@H]3c4[nH]c5ccccc5c4CCN3C[C@H]2C[C@@H](OC(=O)c2cc(OC)c(OC)c(OC)c2)[C@@H]1OC [Deserpidine, reference compound] | ×10⁻⁶ cm/s | 42.1 |
| CCCCCc1cc(O)c2c(c1)OC(C)(C)c1ccc(C)cc1-2 | ×10⁻⁶ cm/s | 20.6 |
| COc1ccc(/C=C/C(=O)c2cc(O)ccc2O)cc1 | ×10⁻⁶ cm/s | 300 |
| O=c1cc(-c2ccc(O)c(O)c2)oc2ccccc12 [3',4'-DIHYDROXYFLAVONE] | ×10⁻⁶ cm/s | 93.9 |
| CSC(=S)NCc1c[nH]c2ccccc12 | ×10⁻⁶ cm/s | 267 |
| O=C1C=C2C=C[C@@H]3C[C@@]2(O1)[C@H]1CCCCN31 | ×10⁻⁶ cm/s | 22 |
| O=c1c(O)c(-c2ccccc2)oc2ccccc12 [3-Hydroxyflavone] | ×10⁻⁶ cm/s | 181 |
| CC=C1CN2CC[C@]34C(=C(C=O)[C@@H]1C[C@H]23)Nc1c(O)cccc14 | ×10⁻⁶ cm/s | 18.2 |
| O=c1c2ccccc2oc2ccccc12 | ×10⁻⁶ cm/s | 173 |
| CCOc1ccc(O)cc1 [Hydroquinone monoethyl ether] | ×10⁻⁶ cm/s | 35 |
| COc1ccc(/C=C\c2cc(OC)c(OC)c(OC)c2)cc1O | ×10⁻⁶ cm/s | 316 |
| C/C(=C\COc1c2ccoc2cc2oc(=O)ccc12)CCC(O)C(C)(C)O (stereo not drawn) [6,7-dihydroxy Bergamottin] | ×10⁻⁶ cm/s | 54.7 |
| CC(/C=C/C(=O)NO)=C\[C@@H](C)C(=O)c1ccc(N(C)C)cc1 | ×10⁻⁶ cm/s | 54.7 |
| COc1cc(-c2cc(=O)c3c(O)cc(O)cc3o2)ccc1O | ×10⁻⁶ cm/s | 179 |
| CC(C)c1cc2c(c(O)c1O)[C@@]13CCCC(C)(C)[C@@H]1C[C@@H]2OC3=O | ×10⁻⁶ cm/s | 32.8 |
| CC1(C)OC1COc1c2occc2cc2ccc(=O)oc12 (stereo not drawn) | ×10⁻⁶ cm/s | 210 |
| Cn1cccc1-c1cccnc1 | ×10⁻⁶ cm/s | 102 |

---

ASSAY_PROCEDURE: in vitro
CONDITION_SUMMARY: PAMPA, PAMPA-BBB Pe, Table S2: compounds exhibiting moderate to high PAMPA-BBB permeability
ASSAY_READOUT: Papp (×10⁻⁶ cm/s)

| CPD_SMILES | TEST_RESULT |
| --- | --- |
| COc1cc(/C=C/C(=O)N2CCC=CC2=O)cc(OC)c1OC | 90 |
| COc1ccc(/C=C/c2cc(OC)cc(=O)o2)cc1 | 156 |
| CC(C)(O)[C@H]1O[C@H]2CC[C@@]3(C)[C@@](O)(CC[C@H]4Cc5c([nH]c6ccccc56)[C@@]43C)C2=CC1=O | 161 |
| COc1ccc(-c2oc3cc(O[C@@H]4O[C@H](CO)[C@@H](O)[C@H](O)[C@H]4O)c(OC)c(O)c3c(=O)c2OC)cc1O | 38 |

---

CONDITION_SUMMARY: Table S2: compounds exhibiting moderate to high PAMPA-BBB permeability
ASSAY_READOUT: PAMPA-BBB Pe

| COMPOUND | TEST_RESULT |
| --- | --- |
| COc1cc(O)c2c(c1)/C=C/C[C@H](O)[C@H](O)[C@H](O)CCC[C@H](C)OC2=O [NCGC00189513-01] | 245 10^-6 cm/sec |
| C/C=C(/C)C(=O)O[C@H]1CC(C)=CC(=O)[C@@]2(C)CC[C@@](O)(C(C)C)[C@H]12 [NCGC00163582-01] | 125 10^-6 cm/sec |
| O=c1cc(-c2ccc(O)c(O)c2)oc2ccccc12 [3',4'-DIHYDROXYFLAVONE] | 94 10^-6 cm/sec |
| COC(=O)c1c(C)c2c(c(C)c1O)OC(=O)c1c(C)c(Cl)c(O)c(Cl)c1O2 [NCGC00095464-04] | 281 10^-6 cm/sec |
| CC1=CC(=O)c2c(O)cccc2C1=O [Plumbagin] | 69 10^-6 cm/sec |
| Cc1c(O)c(O)cc2c1CC=C1[C@@]2(C)CC[C@@]2(C)[C@H]3C[C@](C)(C(=O)O)CC[C@]3(C)CC[C@]12C [NCGC00264082-02] | 288 10^-6 cm/sec |
| COc1cc2c(cc1OC)C(=O)OC2 [NCGC00095581-04] | 12 10^-6 cm/sec |
| COC(=O)C[C@H]1C2(C)C[C@]34O[C@@]5(C)O[C@@]6([C@H](OC(C)=O)C(OC(C)=O)[C@]7(C)C(/C(=C(/O)C(C)C)C(=O)O[C@H]7c7ccoc7)[C@@]6(O5)[C@H](OC(C)=O)[C@@]3(O)C2OC(=O)C(C)C)[C@]14C (some centres unmarked) [NCGC00264007-02] | 28 10^-6 cm/sec |

---

ASSAY_PROCEDURE: in vitro
CONDITION_SUMMARY: PAMPA, PAMPA-BBB Pe, Table S1; 60 min, room temperature, 0.05 mM
ASSAY_READOUT: Papp (×10⁻⁶ cm/s)

| COMPOUND | TEST_RESULT |
| --- | --- |
| O=c1cc(N2CCOCC2)oc2c(-c3cccc4c3sc3ccccc34)cccc12 [NU-7441, reference compound] | 102 |
| Cc1cc2c(C(C)C)c(O)c(O)c(C=O)c2c(O)c1-c1c(C)cc2c(C(C)C)c(O)c(O)c(C=O)c2c1O | 393 |
| C=CC[C@@H]1/C=C(\C)C[C@H](C)C[C@H](OC)[C@H]2O[C@@](O)(C(=O)C(=O)N3CCCC[C@H]3C(=O)O[C@H](/C(C)=C/[C@@H]3CC[C@@H](O)[C@H](OC)C3)[C@H](C)[C@@H](O)CC1=O)[C@H](C)C[C@@H]2OC [Tacrolimus, reference compound] | 154 |

---

Test system: GFP-labeled iPSC-derived human cortical glutamatergic neurons
ASSAY_PROCEDURE: cells
CONDITION_SUMMARY: Neuron, 48 h, read-out: Viability AC50 (48 h)
ASSAY_READOUT: AC50 (µM)

| COMPOUND | ASSAY_READOUT | TEST_RESULT |
| --- | --- | --- |
| CCC(=O)CCCCC[C@@H]1NC(=O)[C@H]2CCCCN2C(=O)[C@H]([C@@H](C)CC)NC(=O)[C@H](Cc2cn(OC)c3ccccc23)NC1=O | AC50 | 2.17 |
| CC(=O)O[C@H]1[C@H]2O[C@]23[C@@H]2CC[C@@H]4C[C@@H](O)CC[C@]4(C)[C@H]2CC[C@]3(C)[C@H]1c1ccc(=O)oc1 | AC50 | 0.093 |
| COc1ccc2c(c[n+](C)c3c4cc5c(cc4ccc23)OCO5)c1OC [Chelerythrine chloride] | AC50 | 2.19 |
| CC1=CC(=O)c2c(O)cccc2C1=O | AC50 | 1.32 |
| CC(/C=C/C(=O)NO)=C\[C@@H](C)C(=O)c1ccc(N(C)C)cc1 | AC50 | 0.472 |
| Cc1c2ccncc2c(C)c2c1[nH]c1ccccc12 | AC50 | 19.6 |
| COc1ccc(/C=C\c2cc(OC)c(OC)c(OC)c2)cc1O | AC50 | 0.047 |
| O=c1cc(N2CCOCC2)oc2c(-c3cccc4c3sc3ccccc34)cccc12 [NU-7441, reference compound] | AC50 | 7.6 |
